Taken from the supplement of paper PMC10724198.

protein stability index values for the sequences below.
System: Saccharomyces cerevisiae;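 also: PSI is a weighted mean of sequencing reads over stability bins, variants kept only with over 10 reads, mCherry proximal and sfGFP distal, peptide attached via GGGS linker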
assay.details: protein stability index of tFT-peptide fusion (C-terminal peptide) (PSI (0-1 scale)); higher = more stable (slower turnover)
condition.details: genetic background: wild type; temperature: 37 C
Kindly provide the number alone.

Known protein stability index results, listed for orientation:
- AYPAHQLLVSCL: 0.5
- NTYKICVVSVTS: 0.578
- GFISKLIIKLAA: 0.462
- GRFGVGVVFRLA: 0.61
- PIHILTHTYIGR: 0.707

Output protein stability index of `SPCSNFLECLSF`
0.733

Output protein stability index of `LRALGPRIYRIS`
0.417
